Assay Overview: Drug level in Sprague-Dawley rat brain at 100 mg/kg, po after 2 hrs
Assay type: ADME, organism-based
Set-up: dose 100 mg/kg, route oral
Assay Conditions: read-out: Drug uptake
Measured Quantity: concentration at 2 h (ng/mL)
Number only, in ng/mL; omit the unit.

In: Tell me the measured concentration at 2 h of "NCCc1cn(S(=O)(=O)c2c(Cl)nc3sccn23)c2ccccc12" , please.
Out: 59.6

---

Assay Overview: Half life in rat at 10 mg/kg, po
Format: ADME, organism-based
Parameters: dose 10 mg/kg, route oral
Assay Conditions: in vivo
Measured Quantity: half-life (h)
Number only, in h; omit the unit.

In: Tell me the measured half-life of "NCCc1cn(S(=O)(=O)c2c(Cl)nc3sccn23)c2ccccc12" , please.
Out: 3.1

---

Assay Overview: Drug level in Sprague-Dawley rat plasma at 100 mg/kg, po after 0.25 hr
Assay type: ADME, organism-based
Design: dose 100 mg/kg, route oral
Measured Quantity: concentration at 0.25 h (ng/mL)
Number only, in ng/mL; omit the unit.

In: Tell me the measured concentration at 0.25 h of "NCCc1cn(S(=O)(=O)c2c(Cl)nc3sccn23)c2ccccc12" , please.
Out: 120

---

5-hydroxytryptamine receptor 6 (Homo sapiens) data, read-out pKi
Sequence (P50406 whole entry): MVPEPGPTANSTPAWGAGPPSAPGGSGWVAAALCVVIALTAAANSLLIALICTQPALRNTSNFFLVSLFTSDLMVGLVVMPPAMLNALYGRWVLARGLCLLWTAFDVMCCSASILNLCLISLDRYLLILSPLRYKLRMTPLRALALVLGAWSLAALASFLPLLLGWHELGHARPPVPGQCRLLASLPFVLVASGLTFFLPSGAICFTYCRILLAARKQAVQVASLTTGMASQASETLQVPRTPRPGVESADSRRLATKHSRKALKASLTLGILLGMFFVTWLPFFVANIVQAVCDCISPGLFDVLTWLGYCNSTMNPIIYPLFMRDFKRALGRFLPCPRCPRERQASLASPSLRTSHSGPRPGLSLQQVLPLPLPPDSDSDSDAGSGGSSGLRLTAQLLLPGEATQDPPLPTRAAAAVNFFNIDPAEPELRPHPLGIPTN
# reply with the number alone; pKi is -log10 of concentration in mol/L

In: Query the reported pKi for 5-hydroxytryptamine receptor 6 (Homo sapiens); item: "Cc1ccc(S(=O)(=O)n2cc(CCN)c3ccccc32)cc1"
Out: 8.10

Others:
In: Query the reported pKi for 5-hydroxytryptamine receptor 6 (Homo sapiens); item: "NCCc1cn(S(=O)(=O)c2ccccc2)c2ccccc12"
Out: 8.00

In: Query the reported pKi for 5-hydroxytryptamine receptor 6 (Homo sapiens); item: "NCCc1cn(S(=O)(=O)c2ccc(Br)s2)c2ccccc12"
Out: 8.15

In: Query the reported pKi for 5-hydroxytryptamine receptor 6 (Homo sapiens); item: "NCCc1cn(S(=O)(=O)c2ccc(Cl)cc2)c2ccccc12"
Out: 8.00

In: Query the reported pKi for 5-hydroxytryptamine receptor 6 (Homo sapiens); item: "NCCc1cn(S(=O)(=O)c2ccc(Cl)c(Cl)c2)c2ccccc12"
Out: 7.52

In: Query the reported pKi for 5-hydroxytryptamine receptor 6 (Homo sapiens); item: "NCCc1cn(S(=O)(=O)c2cc(Cl)c(Cl)s2)c2ccccc12"
Out: 7.51

In: Query the reported pKi for 5-hydroxytryptamine receptor 6 (Homo sapiens); item: "NCCc1cn(S(=O)(=O)c2ccccc2Br)c2ccccc12"
Out: 7.96

In: Query the reported pKi for 5-hydroxytryptamine receptor 6 (Homo sapiens); item: "CN(C)CCn1cc(S(=O)(=O)c2cccc(F)c2)c2ccccc21"
Out: 7.99

In: Query the reported pKi for 5-hydroxytryptamine receptor 6 (Homo sapiens); item: "NCCc1cn(S(=O)(=O)c2ccc(I)cc2)c2ccccc12"
Out: 7.85

In: Query the reported pKi for 5-hydroxytryptamine receptor 6 (Homo sapiens); item: "NCCc1cn(S(=O)(=O)c2ccc(Cl)s2)c2ccccc12"
Out: 8.22

In: Query the reported pKi for 5-hydroxytryptamine receptor 6 (Homo sapiens); item: "COc1ccc(S(=O)(=O)n2cc(CCN)c3ccccc32)cc1OC"
Out: 8.15

In: Query the reported pKi for 5-hydroxytryptamine receptor 6 (Homo sapiens); item: CN1C=C(S(=O)(=O)n2cc(CCN)c3ccccc32)SC1N (configuration not stated)
Out: 8.00

In: Query the reported pKi for 5-hydroxytryptamine receptor 6 (Homo sapiens); item: "COc1ccc(S(=O)(=O)n2cc(CCN)c3ccccc32)cc1"
Out: 7.33

In: Query the reported pKi for 5-hydroxytryptamine receptor 6 (Homo sapiens); item: "NCCc1cn(S(=O)(=O)c2ccc(N)cc2)c2ccccc12"
Out: 9.00

In: Query the reported pKi for 5-hydroxytryptamine receptor 6 (Homo sapiens); item: "NCCc1cn(S(=O)(=O)c2ccc(F)cc2)c2ccccc12"
Out: 7.68

In: Query the reported pKi for 5-hydroxytryptamine receptor 6 (Homo sapiens); item: "NCCc1cn(S(=O)(=O)c2cccc(Cl)c2)c2ccccc12"
Out: 8.22

In: Query the reported pKi for 5-hydroxytryptamine receptor 6 (Homo sapiens); item: "NCCc1cn(S(=O)(=O)c2ccccc2I)c2ccccc12"
Out: 7.80

---

Assay Overview: Drug level in Sprague-Dawley rat plasma at 3 mg/kg, ip after 2 hrs
Assay type: ADME, organism-based
Design: dose 3 mg/kg, route intraperitoneal
Measured Quantity: concentration at 2 h (ng/mL)
Number only, in ng/mL; omit the unit.

In: Tell me the measured concentration at 2 h of "NCCc1cn(S(=O)(=O)c2c(Cl)nc3sccn23)c2ccccc12" , please.
Out: 3.2

---

Assay Overview: Drug level in Sprague-Dawley rat brain at 100 mg/kg, po after 1 hr
Assay type: ADME, organism-based
Design: dose 100 mg/kg, route oral
Assay Conditions: read-out: Drug uptake
Measured Quantity: concentration at 1 h (µg/mL)
Number only, in µg/mL; omit the unit.

In: Tell me the measured concentration at 1 h of "NCCc1cn(S(=O)(=O)c2c(Cl)nc3sccn23)c2ccccc12" , please.
Out: 0.0451

---

Assay Overview: AUC in rat at 1 mg/kg, iv
Assay type: ADME, organism-based
Set-up: dose 1 mg/kg, route intravenous
Assay Conditions: plasma
Measured Quantity: AUC (ng·h/mL)
Number only, in ng·h/mL; omit the unit.

In: Tell me the measured AUC of "NCCc1cn(S(=O)(=O)c2c(Cl)nc3sccn23)c2ccccc12" , please.
Out: 140

---

Assay Overview: Volume of distribution in rat at 1 mg/kg, iv
Assay type: ADME, organism-based
Set-up: dose 1 mg/kg, route intravenous
Assay Conditions: in vivo, read-out: Vdss
Measured Quantity: Vd (L/kg)
Number only, in L/kg; omit the unit.

In: Tell me the measured Vd of "NCCc1cn(S(=O)(=O)c2c(Cl)nc3sccn23)c2ccccc12" , please.
Out: 24

---

Assay Overview: Drug level in Sprague-Dawley rat plasma at 3 mg/kg, ip after 0.25 hr
Assay type: ADME, organism-based
Set-up: dose 3 mg/kg, route intraperitoneal
Measured Quantity: concentration at 0.25 h
Be sure to follow the number with its unit.

In: Tell me the measured concentration at 0.25 h of "NCCc1cn(S(=O)(=O)c2c(Cl)nc3sccn23)c2ccccc12" , please.
Out: 91.3 ng/mL

---

Assay Overview: Clearance in dog at 1 mg/kg, iv
Format: ADME, organism-based, Canis lupus familiaris
Parameters: dose 1 mg/kg, route intravenous
Assay Conditions: in vivo
Measured Quantity: clearance (mL/min/kg)
Number only, in mL/min/kg; omit the unit.

In: Tell me the measured clearance of "NCCc1cn(S(=O)(=O)c2c(Cl)nc3sccn23)c2ccccc12" , please.
Out: 30

---

Assay Overview: Permeability in parallel artificial membrane
Assay type: ADME
Assay Conditions: PAMPA; read-out: permeability
Measured Quantity: Papp (×10⁻⁶ cm/s)
Number only, in ×10⁻⁶ cm/s; omit the unit.

In: Tell me the measured Papp of "NCCc1cn(S(=O)(=O)c2c(Cl)nc3sccn23)c2ccccc12" , please.
Out: 13.6

---

Target System: 5-hydroxytryptamine receptor 6 (Homo sapiens)
Assay Overview: Agonist activity at human 5HT6 receptor expressed in HeLa cells assessed as cAMP production
Format: functional, cell-based
Measured Quantity: Emax (%)
Number only, in %; omit the unit.

In: Tell me the measured Emax of "NCCc1cn(S(=O)(=O)c2ccc(Cl)s2)c2ccccc12" , please.
Out: 100

In: Tell me the measured Emax of "NCCc1cn(S(=O)(=O)c2ccccc2Br)c2ccccc12" , please.
Out: 97.5

In: Tell me the measured Emax of "Cc1ccc(S(=O)(=O)n2cc(CCN)c3ccccc32)cc1" , please.
Out: 87.5

In: Tell me the measured Emax of "NCCc1cn(S(=O)(=O)c2ccc(N)cc2)c2ccccc12" , please.
Out: 73

In: Tell me the measured Emax of "NCCc1cn(S(=O)(=O)c2cccc(Cl)c2)c2ccccc12" , please.
Out: 100

Others:
In: Tell me the measured Emax of "NCCc1cn(S(=O)(=O)c2ccc(Br)s2)c2ccccc12" , please.
Out: 72

In: Tell me the measured Emax of "NCCc1cn(S(=O)(=O)c2ccccc2)c2ccccc12" , please.
Out: 92

In: Tell me the measured Emax of "NCCc1cn(S(=O)(=O)c2ccc(Cl)cc2)c2ccccc12" , please.
Out: 93.5

---

Assay Overview: Tmax in rat at 10 mg/kg, po
Format: ADME, organism-based
Parameters: dose 10 mg/kg, route oral
Assay Conditions: in vivo
Measured Quantity: Tmax (h)
Number only, in h; omit the unit.

In: Tell me the measured Tmax of "NCCc1cn(S(=O)(=O)c2c(Cl)nc3sccn23)c2ccccc12" , please.
Out: 1.7
